- ASSAY NOTES: Compound stability in rat liver microsomes
- Type: in vitro ADME
- CONDITION: liver microsomes, pH 7.4; in vivo CLint extrapolated from rat liver microsome incubation
Given measured CLint scaled at 5 μM, output label 1 if it is greater than or equal to 20 mL/min/kg and label 0 if not.

Cc1nnc(-c2c(N)ncnc2N[C@@H](C)c2nc3cccc(-c4cnn(C)c4)c3c(=O)n2-c2ccccc2)o1 [Ex. 69]: label 0
CC[C@H](Nc1ncnc(N)c1-c1noc(C)n1)c1nc2cccc(-c3cnn(C)c3)c2c(=O)n1C1CC1 [Ex. 79]: label 0
Cc1nc(-c2c(N)ncnc2N[C@@H](C)c2nc3cccc(-c4cnn(C)c4)c3c(=O)n2-c2ccccc2)no1 [Ex. 77]: label 1
Cc1nnc(-c2c(N)ncnc2N[C@@H](C)c2nc3cccc(-c4cnn(C)c4)c3c(=O)n2C2CC2)o1 [Ex. 67]: label 0
Cc1noc(-c2c(N)ncnc2N[C@@H](C)c2nc3cccc(-c4cnn(C)c4)c3c(=O)n2-c2ccccc2)n1 [Ex. 68]: label 0

Say whether C[C@H](Nc1ncnc(N)c1-c1nnn(C)n1)c1nc2cccc(-c3cnn(C)c3)c2c(=O)n1-c1ccccc1 [Ex. 76] shows CLint scaled at 5 μM of 20 mL/min/kg or more.
label 0

Hi, just wondering whether Cc1nc(-c2c(N)ncnc2N[C@@H](C)c2nc3cccc(-c4cnn(C)c4)c3c(=O)n2C2CC2)no1 [Ex. 80] shows CLint scaled at 5 μM of 20 mL/min/kg or higher.
label 1

Quick check: does Cc1nnc(-c2c(N)ncnc2N[C@@H](C)c2nc3cccc(Cl)c3c(=O)n2C2CC2)o1 [Ex. 70] have CLint scaled at 5 μM greater than or equal to 20 mL/min/kg?
label 1

# check: CLint scaled at 5 μM of Cc1noc(-c2c(N)ncnc2N[C@@H](C)c2nc3cccc(-c4cnn(C)c4)c3c(=O)n2C2CC2)n1 [Ex. 66] is greater than or equal to 20 mL/min/kg
label 0

Does the reported CLint scaled at 5 μM for CC[C@H](Nc1ncnc(N)c1-c1nnn(C)n1)c1nc2cccc(-c3cnn(C)c3)c2c(=O)n1C1CC1 [Ex. 78] fall at or above the 20 mL/min/kg mark?
label 1

###

- ASSAY NOTES: Compound stability in human liver microsomes
- Format: in vitro ADME
- CONDITION: liver microsomes, pH 7.4; in vivo CLint extrapolated from human liver microsome incubation
ENDPOINT LABEL: CLint scaled at 5 μM (mL/min/kg)
Give the value in mL/min/kg but do not write mL/min/kg after it.

Dear colleague, please send me the reported CLint scaled at 5 μM for `Cc1nc(-c2c(N)ncnc2N[C@@H](C)c2nc3cccc(-c4cnn(C)c4)c3c(=O)n2C2CC2)no1` when you can.
27

Respond only with CLint scaled at 5 μM recorded for `Cc1nnc(-c2c(N)ncnc2N[C@@H](C)c2nc3cccc(-c4cnn(C)c4)c3c(=O)n2-c2ccccc2)o1`
12.6

Return CLint scaled at 5 μM for the following molecule: `Cc1noc(-c2c(N)ncnc2N[C@@H](C)c2nc3cccc(-c4cnn(C)c4)c3c(=O)n2-c2ccccc2)n1`
23.8

###

- ASSAY NOTES: Pharmacokinetics after intravenous and oral administration in rats
- Type: in vivo
- CONDITION: rat, plasma, iv, 1 mg/kg
ENDPOINT LABEL: AUC(0-t) (ng·h/mL)
Use ng·h/mL as the unit, but write only the number.

Completed entries (count: 3):
Cc1nc(-c2c(N)ncnc2N[C@@H](C)c2nc3cccc(-c4cnn(C)c4)c3c(=O)n2-c2ccccc2)no1 [Ex. 77]: 2920
Cc1nnc(-c2c(N)ncnc2N[C@@H](C)c2nc3cccc(Cl)c3c(=O)n2C2CC2)o1 [Ex. 70]: 399
CC[C@H](Nc1ncnc(N)c1-c1nc(C)no1)c1nc2cccc(-c3cnn(C)c3)c2c(=O)n1C1CC1 [Ex. 71]: 256

Give the value of AUC(0-t) reported for the following: Cc1nnc(-c2c(N)ncnc2N[C@@H](C)c2nc3cccc(-c4cnn(C)c4)c3c(=O)n2-c2ccccc2)o1 [Ex. 69]
1100

// Input: Cc1noc(-c2c(N)ncnc2N[C@@H](C)c2nc3cccc(-c4cnn(C)c4)c3c(=O)n2C2CC2)n1 [Ex. 66] . Output its AUC(0-t) only.
423

Note AUC(0-t) for the molecule shown: Cc1noc(-c2c(N)ncnc2N[C@@H](C)c2nc3cccc(-c4cnn(C)c4)c3c(=O)n2-c2ccccc2)n1 [Ex. 68]
2690

State, in one line, measured AUC(0-t) of CC[C@H](Nc1ncnc(N)c1-c1nc(C)no1)c1nc2cccc(-c3cnn(C)c3)c2c(=O)n1-c1ccccc1 [Ex. 74]
1120

Quick one: give measured AUC(0-t) for Cc1nnc(-c2c(N)ncnc2N[C@@H](C)c2nc3cccc(-c4cnn(C)c4)c3c(=O)n2C2CC2)o1 [Ex. 67]
777

Annotate the molecule CC[C@H](Nc1ncnc(N)c1-c1nnc(C)o1)c1nc2cccc(-c3cnn(C)c3)c2c(=O)n1-c1ccccc1 [Ex. 73] with its measured AUC(0-t).
807

Dear colleague, please send me the reported AUC(0-t) for CC[C@H](Nc1ncnc(N)c1-c1nnc(C)o1)c1nc2cccc(-c3cnn(C)c3)c2c(=O)n1C1CC1 [Ex. 72] when you can.
270

Tell me its AUC(0-t) given CC[C@H](Nc1ncnc(N)c1-c1nnn(C)n1)c1nc2cccc(-c3cnn(C)c3)c2c(=O)n1C1CC1 [Ex. 78] as the entry.
783

###

- ASSAY NOTES: Pharmacokinetics after intravenous and oral administration in rats
- Type: in vivo
- CONDITION: rat, plasma; Rats; oral (p.o.) generally 5 or 10 mg/kg versus iv dosing
ENDPOINT LABEL: bioavailability (%)
Respond with the bare value in %.

Use the examples below as a reference point.
Cc1noc(-c2c(N)ncnc2N[C@@H](C)c2nc3cccc(-c4cnn(C)c4)c3c(=O)n2C2CC2)n1: 96.2
CC[C@H](Nc1ncnc(N)c1-c1nc(C)no1)c1nc2cccc(-c3cnn(C)c3)c2c(=O)n1-c1ccccc1: 105

Please give the documented bioavailability of `CC[C@H](Nc1ncnc(N)c1-c1nc(C)no1)c1nc2cccc(-c3cnn(C)c3)c2c(=O)n1C1CC1`
85.5

// fetch bioavailability given entry `CC[C@H](Nc1ncnc(N)c1-c1nnc(C)o1)c1nc2cccc(-c3cnn(C)c3)c2c(=O)n1C1CC1`
35.9

###

- ASSAY NOTES: Pharmacokinetics after intravenous and oral administration in rats
- Type: in vivo
- CONDITION: Rats; iv dosing; dose 1 mg/kg (0.5 for Ex. 1, 10, 11, 35; 0.48 for Ex. 24)
ENDPOINT LABEL: log10 CL/F (log10 of the value in mL/min/kg)
Plainly stated, the numbers are log10 of CL/F given in mL/min/kg.

Some compounds with known log10 CL/F results, for comparison:
CC[C@H](Nc1ncnc(N)c1-c1ncn(C)n1)c1nc2cccc(Cl)c2c(=O)n1-c1ccc(F)cc1 [Ex. 50]: 1.94
Cc1nnc(-c2c(N)ncnc2N[C@@H](C)c2nc3cccc(-c4cnn(C)c4)c3c(=O)n2-c2ccccc2)o1 [Ex. 69]: 1.18
CC[C@H](Nc1ncnc(N)c1-c1noc(C)n1)c1nc2cccc(-c3cnn(C)c3)c2c(=O)n1C1CC1 [Ex. 79]: 1.51
CC[C@H](Nc1ncnc(N)c1-c1nc(COC)n(C)n1)c1nc2cccc(Cl)c2c(=O)n1C1CC1 [Ex. 46]: 1.75
CC[C@H](Nc1ncnc(N)c1-c1nnc(C)o1)c1nc2cccc(F)c2c(=O)n1C1CC1 [Ex. 25]: 1.88

Tell me log10 CL/F reported for CC[C@H](Nc1ncnc(N)c1-c1ncn(C)n1)c1nc2cccc(F)c2c(=O)n1C1CC1 [Ex. 26]
1.57

Please give the documented log10 CL/F of CC[C@H](Nc1ncnc(N)c1-c1nc(C)no1)c1nc2cccc(-c3cnn(C)c3)c2c(=O)n1-c1ccccc1 [Ex. 74]
1.16

Give the measured log10 CL/F for Cc1noc(-c2c(N)ncnc2N[C@@H](C)c2nc3cccc(Cl)c3c(=O)n2C2CC2)n1 [Ex. 41]
1.93

Determine its reported log10 CL/F: Cc1noc(-c2c(N)ncnc2N[C@@H](C)c2nc3cccc(-c4cnn(C)c4)c3c(=O)n2C2CC2)n1 [Ex. 66]
1.59

###

- ASSAY NOTES: Pharmacokinetics after intravenous and oral administration in rats
- Type: in vivo
- CONDITION: Rats; iv dosing; dose 1 mg/kg (0.5 for Ex. 1, 10, 11, 35; 0.48 for Ex. 24)
- Experimental: The LC/MS/MS system used in the analysis consists of an Agilent 1200 Series vacuum degasser, binary pump, well-plate autosampler, thermostatted column compartment, the Agilent G6430 Triple Quadrupole Mass Spectrometer with an electrosprayionization (ESI) source. Quantitative analysis was carried out using MRM mode. The parameters for MRM transitions are in the Table A. […] The compounds disclosed herein are assessed in pharmacokinetic studies in mice, rats, dogs or monkeys. […]
Listing: CL/F of selected molecules

CC[C@H](Nc1ncnc(N)c1-c1ncnn1C)c1nc2cccc(Cl)c2c(=O)n1C1CC1: 27.3 mL/min/kg

Please supply the value of reported CL/F for the item `CC[C@H](Nc1ncnc(N)c1-c1ncn(C)n1)c1nc2cccc(C)c2c(=O)n1C1CC1`
54.2 mL/min/kg

Note CL/F for the molecule shown: `CC[C@H](Nc1ncnc(N)c1-c1noc(C)n1)c1nc2ccccc2c(=O)n1-c1ccccc1F`
118 mL/min/kg

Please list CL/F recorded for the molecule CC[C@H](Nc1ncnc(N)c1-c1nc(C)no1)c1nc2ccccc2c(=O)n1-c1ccccc1F (single isomer, unassigned)
159 mL/min/kg

Check the records and state CL/F for CC[C@H](Nc1ncnc(N)c1-c1noc(C)n1)c1nc2cccc(C)c2c(=O)n1-c1ccccc1C (single isomer, unassigned)
74.2 mL/min/kg

Note down CL/F recorded for CC[C@H](Nc1ncnc(N)c1-c1ncn(C)n1)c1nc2cccc(C)c2c(=O)n1-c1ccccc1C (single isomer, unassigned)
70.5 mL/min/kg

Look up CL/F of `CC(C)c1nc(-c2c(N)ncnc2N[C@@H](C)c2nc3cccc(Cl)c3c(=O)n2C2CC2)no1` and report it.
73.7 mL/min/kg
